Each recorded value in this set is attributed to patent US20180237441A1.

Below, each of the compounds is paired with its reported pIC50 value.
target: UniProt:Q9NZJ5; test: PERK enzyme assay (HTRF); assay type: biochemical; conditions: PERK Enzyme (500 μM ATP) IC50; at least one experimental run; read-out: PERK Activity
Sequence (Q9NZJ5 30-1116): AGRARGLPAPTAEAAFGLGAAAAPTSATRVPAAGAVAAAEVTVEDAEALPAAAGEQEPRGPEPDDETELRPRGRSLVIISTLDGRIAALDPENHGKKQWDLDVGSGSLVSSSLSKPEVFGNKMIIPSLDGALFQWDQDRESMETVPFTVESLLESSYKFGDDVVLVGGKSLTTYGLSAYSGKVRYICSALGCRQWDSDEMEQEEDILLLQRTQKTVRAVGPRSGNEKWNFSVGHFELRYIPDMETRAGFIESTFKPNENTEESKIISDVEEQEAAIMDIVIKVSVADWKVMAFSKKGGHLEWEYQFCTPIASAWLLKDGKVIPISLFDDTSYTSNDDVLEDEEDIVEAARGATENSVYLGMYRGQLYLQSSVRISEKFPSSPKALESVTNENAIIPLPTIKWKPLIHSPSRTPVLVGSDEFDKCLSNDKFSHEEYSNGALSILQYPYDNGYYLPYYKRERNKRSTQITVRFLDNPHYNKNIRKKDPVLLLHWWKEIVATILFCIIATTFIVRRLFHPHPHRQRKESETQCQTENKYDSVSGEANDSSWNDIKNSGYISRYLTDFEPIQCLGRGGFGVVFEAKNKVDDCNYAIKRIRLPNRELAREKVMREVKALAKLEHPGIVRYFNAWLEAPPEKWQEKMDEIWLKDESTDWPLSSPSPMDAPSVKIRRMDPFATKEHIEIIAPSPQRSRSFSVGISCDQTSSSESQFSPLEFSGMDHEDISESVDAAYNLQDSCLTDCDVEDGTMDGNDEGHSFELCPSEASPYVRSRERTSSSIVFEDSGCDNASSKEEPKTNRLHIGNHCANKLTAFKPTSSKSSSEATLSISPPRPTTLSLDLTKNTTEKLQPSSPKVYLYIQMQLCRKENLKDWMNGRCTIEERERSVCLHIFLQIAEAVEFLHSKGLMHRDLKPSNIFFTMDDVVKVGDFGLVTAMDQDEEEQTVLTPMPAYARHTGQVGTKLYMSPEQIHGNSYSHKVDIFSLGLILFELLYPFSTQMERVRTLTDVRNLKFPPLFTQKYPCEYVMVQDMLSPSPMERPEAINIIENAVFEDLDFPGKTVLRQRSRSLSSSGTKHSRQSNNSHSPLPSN
pIC50: −log10 of the molar value.

Past entries and their recorded results:
> print(dat)
                                   compound      observed
1  Cc1nc(N)c2c(-c3ccc(N4CC(c5ccc(F)c(F)c5)N(C)C4=O)cc3F)cn(C)c2n1 (single isomer, unassigned) [Example 80]        > 7.00
2  Cn1cc(-c2ccc(N3CC(c4ccc(F)cc4F)N(CC(F)(F)F)C3=O)cc2F)c2c(N)ncnc21 (stereo not shown)        > 7.00
3  CCN1C(=O)N(c2ccc(-c3cn(C4CC4)c4ncnc(N)c34)c(F)c2)CC1c1cc(F)cc(F)c1 (stereo not shown) [Example 170]        > 7.00
4  Cc1nc(N)c2c(-c3ccc(N4CC(c5ccc(F)cc5F)N(C)C4=O)cc3F)cn(C3CC3)c2n1 (single isomer, unassigned) [Example 9]        < 6.00
5  Cc1nc(N)c2c(-c3ccc(N4CC(c5cc(F)ccc5F)N(C)C4=O)cc3F)cn(C)c2n1 (single isomer, unassigned) [Example 37]  6.00 to 7.00

IN: Which measured pIC50 belongs to CCn1cc(-c2ccc(N3CC(c4ccc(F)cc4F)N(C)C3=O)cc2F)c2c(N)nc(C)nc21 (stereo not shown) , tested on UniProt:Q9NZJ5?
OUT: > 7.00

IN: Which measured pIC50 belongs to CN1C(=O)N(c2ccc(-c3cn(C)c4ncnc(N)c34)c(F)c2)CC1c1cc(F)cc(F)c1 (single isomer, unassigned) [Example 101] , tested on UniProt:Q9NZJ5?
OUT: 6.00 to 7.00
